Where do the numbers come from? From ChEMBL document CHEMBL3763114.

# measurement_description: Cytotoxicity against human 293T cells assessed as growth inhibition
# Type: cell-based, HEK-293T
value_kind: CC50 (µM)
# unit: µM | format: bare number

Request: Dear colleague, I am looking for the recorded CC50 of the following molecule: Cc1ccc(-c2nnc(-c3ccc(CN4CCN(C)CC4)cc3)o2)cc1Nc1nccc(-c2cccnc2)n1
Result: 7.63

Request: Entry under review: Cc1ccc(-c2cn(-c3ccc(CN4CCN(C)CC4)cc3)nn2)cc1Nc1nccc(-c2cccnc2)n1 . Reported CC50?
Result: 4.15

Request: CC50 lookup needed for Cc1ccc(NC(=O)c2ccc(CN3CCN(C)CC3)cc2)cc1Nc1nccc(-c2cccnc2)n1 [IMATINIB] , thanks.
Result: 20.5

Request: For the molecule shown here, Cc1ccc(-c2cn(-c3ccc(CN4CCN(C)CC4)c(C(F)(F)F)c3)nn2)cc1Nc1nccc(-c2cccnc2)n1 , give the reported CC50.
Result: 2.66

Request: Recorded CC50 for Cc1ccc(-n2cc(-c3ccc(CN4CCN(C)CC4)c(C(F)(F)F)c3)nn2)cc1Nc1nccc(-c2cccnc2)n1 , please?
Result: 8.18

Request: Which value of CC50 has been reported for Cc1ccc(-n2cc(-c3ccc(CN4CCN(C)CC4)cc3)nn2)cc1Nc1nccc(-c2cccnc2)n1 in the records?
Result: 14.9

Request: Which CC50 reading was recorded for the molecule Cc1ccc(-c2nnc(-c3ccc(CN4CCN(C)CC4)c(C(F)(F)F)c3)o2)cc1Nc1nccc(-c2cccnc2)n1 ?
Result: 2.17
